- Experimental Details: Half life in nude mouse plasma at 30 mg/kg, iv by HPLC analysis
- Format: ADME, organism-based
Endpoint Name: half-life (min)
Provide only the numeric value, understood in min.

Query block: Looking for the measured half-life of Cc1ccc(S(=O)(=O)NCc2ccc(CNC(=O)c3ccc(F)cc3)cc2)cc1 , can you help?
Result block: 40

====

- System Tested: C-X-C chemokine receptor type 4 (Homo sapiens) (UniProt P61073)
- Sequence (P61073 whole entry): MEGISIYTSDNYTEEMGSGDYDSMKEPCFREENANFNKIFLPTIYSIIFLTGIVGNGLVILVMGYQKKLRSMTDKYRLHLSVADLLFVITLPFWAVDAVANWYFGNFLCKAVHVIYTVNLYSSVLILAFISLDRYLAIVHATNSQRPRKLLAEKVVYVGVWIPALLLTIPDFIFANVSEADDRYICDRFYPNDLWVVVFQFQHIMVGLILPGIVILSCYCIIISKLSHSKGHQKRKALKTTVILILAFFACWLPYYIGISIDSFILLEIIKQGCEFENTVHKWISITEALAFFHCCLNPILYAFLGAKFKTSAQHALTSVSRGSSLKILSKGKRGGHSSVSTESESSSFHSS
- Experimental Details: Inhibition of biotinylated TN14003 binding to CXCR4 in human MDA-MB-231 cells assessed as reduction in fluorescence preincubated for 10 mins followed by biotinylated-TN14003 addition measured after 30 mins by streptavidin-rhodamine staining based immunofluorescence microscopic analysis
- Type: cell-based
Reported EC values for the following molecules.
Write it as a number; the unit nM goes unstated.

Query block: # query: EC | item Cc1ccc(S(=O)(=O)NCc2ccc(CNC(=O)c3ccccc3F)cc2)cc1 | system: C-X-C chemokine receptor type 4 (Homo sapiens) (UniProt P61073)
Result block: 1000

Query block: Recorded EC for O=C(NCc1ccc(CNS(=O)(=O)c2ccccc2)cc1)c1ccccc1F with C-X-C chemokine receptor type 4 (Homo sapiens) (UniProt P61073), please?
Result block: 1000

Query block: Item O=C(NCc1ccc(CNS(=O)(=O)c2ccccc2)cc1)c1ccccc1 with C-X-C chemokine receptor type 4 (Homo sapiens) (UniProt P61073) - EC?
Result block: 1

Query block: Recall the recorded EC for Cc1ccc(S(=O)(=O)NCc2ccc(CNC(=O)c3ccc(F)cc3)cc2)cc1 with C-X-C chemokine receptor type 4 (Homo sapiens) (UniProt P61073) and state it.
Result block: 1
